Target: T1, β16β17 (erythrocyte β-spectrin residues 1898–2083), wild type (human, UniProt P11277 1898-2083)
T1 construct: erythrocyte β-spectrin, human, residues 1898-2083 (β16 plus the incomplete 17th domain); synthetic gene (GenScript) in a modified pRSETA plasmid; source: E. coli C41(DE3), purified (Ni2+ agarose, thrombin cleavage, gel filtration)
T1 sequence (looked up): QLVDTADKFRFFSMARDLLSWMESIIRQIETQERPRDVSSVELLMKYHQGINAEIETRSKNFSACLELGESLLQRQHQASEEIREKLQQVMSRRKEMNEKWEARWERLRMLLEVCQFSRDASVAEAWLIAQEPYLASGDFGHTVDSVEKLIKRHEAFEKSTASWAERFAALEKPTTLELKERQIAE
Assay: ITC; β16β17 at 25–50 μM in the cell titrated with 15–20 injections to 2–2.5 eq of α0α1; one-site binding model; PBS (50 mM sodium phosphate, 150 mM NaCl, pH 7.04), 25 °C; mutants only against the wild-type partner
Conditions: both partners purified
Recorded endpoint: Ka (M⁻¹)
Reply numerically in M⁻¹, unit not repeated.

Binder	Recorded endpoint	Experimental value
α0α1 E103G (domain or fragment, human, UniProt P02549 2-163, looked up, mutant of m1; also called E44G; source: E. coli C41(DE3), purified (Ni2+ agarose, thrombin cleavage, gel filtration)) EQFPKETVVESSGPKVLETAEEIQERRQEVLTRYQSFKERVAGRGQKLEDSYHLQVFKRDADDLGKWIMEKVNILTDKSYEDPTNIQGKYQKHQSLEAEVQTKSRLMSELEKTREERFTMGHSAHEETKAHIEELRHLWDLLLELTLEKGDQLLRALKFQQY	Ka	220000

Now let's try a different one.
What value of Ka has been reported for the following binder? α0α1 R87G (domain or fragment, human, UniProt P02549 2-163, looked up, mutant of m1; also called R28G; source: E. coli C41(DE3), purified (Ni2+ agarose, thrombin cleavage, gel filtration)) EQFPKETVVESSGPKVLETAEEIQERGQEVLTRYQSFKERVAERGQKLEDSYHLQVFKRDADDLGKWIMEKVNILTDKSYEDPTNIQGKYQKHQSLEAEVQTKSRLMSELEKTREERFTMGHSAHEETKAHIEELRHLWDLLLELTLEKGDQLLRALKFQQY
4e+06
